Reported interaction score values follow for various binders
Target: T1, 4H3926-bA
T1 chain: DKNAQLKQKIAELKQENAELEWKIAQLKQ
Assay: two-hybrid library CCNG1;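 further: natural log of median RNA to DNA barcode read ratio; higher means stronger binding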

Example entries and their recorded answers appear below.
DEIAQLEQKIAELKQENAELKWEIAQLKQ [4H346-bA] : 1.57
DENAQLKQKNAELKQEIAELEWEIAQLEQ [4H1985-bA] : -1.07
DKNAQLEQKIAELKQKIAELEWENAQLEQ [4H3427-bA] : -0.817

Now, please, on to the next binder.
Task: Query (binder): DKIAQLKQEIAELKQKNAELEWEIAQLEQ [4H2673-bA] ; field requested: interaction score
Output: 1.58
